Some variants, each annotated with its measured protein stability index.
B1: ACSBG2 (parent)
chain: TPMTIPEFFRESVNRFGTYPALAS

Variants of: B1
Assay: protein stability index of a GFP-peptide fusion (GPS, HEK-293T) (PSI 1-6); higher = more stable;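 further: lentivirally expressed fusions sorted by FACS into six bins by GFP to DsRed ratio, PSI derived from sequencing read proportions per bin multiplied by bin number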
Details: c terminus: a fixed tail appended
Reply with the value as a number alone.

# example entries with known answers
In [3]: df
Out[3]:
   alteration             test_readout  test_value
0         F8Q  protein stability index        2.65
1        T18A  protein stability index        1.89
2         P2G  protein stability index        2.12
3        Y19F  protein stability index        2.52
4        S12R  protein stability index        2.25

What the record says about R15N : protein stability index is 2.5

What the record says about F16C : protein stability index is 2.54

What the record says about L22G : protein stability index is 3

What the record says about R10I : protein stability index is 1.51

What the record says about N14G : protein stability index is 2.18

What the record says about S12H : protein stability index is 2.27

What the record says about G17V : protein stability index is 2.1

What the record says about T4A : protein stability index is 2.62

What the record says about N14T : protein stability index is 2.23

What the record says about T4I : protein stability index is 1.88

What the record says about F8A : protein stability index is 2.99

What the record says about M3G : protein stability index is 2.54
